# test details: gradient 5% acetonitrile 3 min, to 50% in 2 min, to 85% in 15 min, held 3 min, 100 µL/min
# condition info: column: Zorbax Extend-C18 2.1 x 50 mm; eluents: water / acetonitrile, 0.1% formic acid
quantity name: RP-LC retention time (s)
Give bare numbers, in s.

Cc1nc(S(=O)(=O)N2CCC(C(=O)N3CCN(c4ccccc4F)CC3)CC2)cn1C : 719
O=C(COc1ccccc1)N1CCN(c2nc(CN3CCCC3)cs2)CC1 : 623
CCn1nccc1-c1cccc(-c2noc(-c3ccc(C)s3)n2)c1 : 1250
CCCC(=O)Nc1cnc(N2CCNCC2)c(C(=O)N(CC(C)C)CC(C)C)c1 : 652
O=C1NCCCCCCN(C(=O)c2cccs2)[C@H]2CCCC[C@@H]12 : 838
CCCOC(=O)C1=CN(C)S(=O)(=O)N=C1C : 796

Record RP-LC retention time per entry; entries follow.
1. CN(C)CCCNC(=O)Cn1c(=O)n(-c2ccc(F)cc2)c2ncccc21
2. Brc1ccc(OCc2nn3c(-c4cccnc4)nnc3s2)cc1
3. O=C(c1cccs1)N1CC(C(=O)N2CCC(O)CC2)C1

1. 577
2. 885
3. 566

Record RP-LC retention time per entry; entries follow.
1. CCCCNC(=O)c1nc(Nc2ccccc2)c2ccccc2n1
2. NC(=O)c1ccc2c(c1)CCCN2S(=O)(=O)c1ccccc1
3. CCC(C)NS(=O)(=O)c1cc(-c2nnc(-c3ccccc3)o2)ccc1F (stereo not drawn)
4. Cc1ccc(NC(=O)N2CCc3cn(C)c4cccc(c34)C2)cc1C
5. COc1ccc(/C=C/c2nn3c(-c4cccnc4)nnc3s2)cc1
6. Cn1cc(CN2C[C@@H](COc3cccnc3)[C@H](c3ccccn3)C2)cn1

[801, 726, 966, 981, 860, 528]

Record RP-LC retention time per entry; entries follow.
1. CSc1ccccc1NC(=O)Cc1cc(-c2ccc(F)cc2)on1
2. Cc1ccc(Cn2cc(-c3ccncc3)cc2C(=O)N2CCN(CC(C)C)CC2)cc1
3. Cc1nc(Nc2ccc(F)cn2)sc1C(=O)N1CCN(c2ncccn2)CC1
4. COc1cc(=O)n2c(c1C(=O)NC1CCCCCCC1)CCCC2
5. O=C(Nc1cc(-c2ccsc2)no1)c1ccc(Cl)cc1

1. 919
2. 582
3. 719
4. 734
5. 1010
